# TGT: T1, Anti-PSMA Fab (biotinylated (site not stated))
# T1 construct: Biotinylated PSMA Fab captured on neutravidin coated plates; also called 006 PSMA Fab
# MEASUREMENT_DESCRIPTION: clonal phage ELISA on plate-captured biotinylated PSMA Fab, wells pre-incubated with PSMA antigen as competitor
RESULT_TYPE: phage binding ELISA signal (Anti-PSMA Fab with PSMA)
Please reply with the number alone, leaving off any unit.

In the examples that follow, each entry is paired with its recorded phage binding ELISA signal (Anti-PSMA Fab with PSMA).
# BINDER, ENDPOINT_RESULT
rows = [
    ("LVSWCTPPWMCEGV (tested as crude clonal phage supernatant) [Phage-3961]", 0.131),
    ("ISAECRPPWMCIGF (tested as crude clonal phage supernatant) [Phage-3963]", 0.0626),
    ("TAPWCQPRWMCDGF (tested as crude clonal phage supernatant) [Phage-3958]", 0.0701),
    ("ITRMCTPSWMCMSF (tested as crude clonal phage supernatant) [Phage-3964]", 0.078),
    ("GLPQCVPPWMCDGF (tested as crude clonal phage supernatant) [Phage-3953]", 0.056),
]

Just so you know, measured phage binding ELISA signal (Anti-PSMA Fab with PSMA) for YERVCVPSWMCNSL (tested as crude clonal phage supernatant) [Phage-3955] came out at 0.0845
